system: T1, human IL-5 with his-tag (rhIL-5-his) (human, UniProt P05113 20-134)
T1 construct: It was expressed in HEK293 and purified from the supernatant; also called HuIL-5; recombinant human IL-5
T1 sequence: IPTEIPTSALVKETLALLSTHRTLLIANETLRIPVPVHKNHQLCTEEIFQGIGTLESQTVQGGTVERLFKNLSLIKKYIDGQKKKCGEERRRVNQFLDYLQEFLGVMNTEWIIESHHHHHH
experiment.summary: Biacore T200, antibody captured on protein A chip, antigen in flow, 1:1 Langmuir
observation.type: Kd (nM)
Please state the figure in nM; there is no need to write the unit.

Ask: For h1706-006 (antibody, human IgG1, kappa, V domains shown, Constant regions as for h1706-003) VH: EVQLVESGGGLVQPGGSLRLSCAASGFTFSHYYMAWVRQAPGKGLEWVSSINYEGNSAYYGDSVKGRFTISRDNSKNTLYLQMNSLRAEDTAVYYCATETLRESLDYWGQGTMVTVSS VL: DIQMTQSPSSVSASVGDRVTITCRASQDIGNYLSWYQQKPGKSPKLLIYSASNLEVGVPSRFSGSGSGTDFTLTISSLQPEDFATYYCLQHKQFPRTFGGGTKVEIKR , write its Kd.
Result: 0.0173

Ask: For h1773-007 (antibody, human IgG1, kappa, V domains shown) VH: EVQLVESGGGLVQPGGSLKLSCAASGFTISNTYIHWVKQASGKGLEWIGRIDPAVGDTKHGPKFQGRFTISADDSKNTAYLQMNSLKTEDTAVYYCFRYGIYPDHWGQGTLVTVSS VL: DIQLTQSPSSLSASVGDRVTITCSASSSVNYIYWYQQKPGKSPKPWIYLTATLASGVPSRFSGSGSGTDFTLTISSLQPEDFATYYCQQWNSYPYTFGGGTKVEIKR , write its Kd.
Result: 0.207

Ask: For h1705-006 (antibody, human IgG1, kappa, V domains shown) VH: EVQLVESGGGLVQPGGSLRLSCAASGFTFSHYYMAWVRQAPGKGLEWVSSISYEGDITYYGDSVKGRFTISRDNSKNTLYLQMNSLRAEDTAVYYCAKQTLRESFDYWGQGTLVTVSS VL: DIQMTQSPSSVSASVGDRVTITCRASQDIANYLSWYQQKPGKSPKLLIYGTSNLEVGVPSRFSGSRSGTDFTLTISSLQPEDFATYYCLQDKEFPRTFGGGTKVEIKR , write its Kd.
Result: 4.11

Ask: For h1705-004 (antibody, human IgG1, kappa, V domains shown) VH: EVQLVESGGGLVQPGGSLRLSCAASGFTFSHYYMAWVRQAPGKGLEWVSSISYEGDITYYGDSVKGRFTISRDNSKNTLYLQMNSLRAEDTAVYYCASQTLRESFDYWGQGTLVTVSS VL: DIQMTQSPSSVSASVGDRVTITCRASQDIANYLSWYQQKPGKAPKLLIYGTSNLEVGVPSRFSGSGSGTDFTLTISSLQPEDFATYYCLQDKEFPRTFGGGTKVEIKR , write its Kd.
Result: 0.0214

Ask: For h1705-007 (antibody, human IgG1, kappa, V domains shown) VH: EVQLVESGGGLVQPGGSLRLSCAASGFTFSHYYMAWVRQAPGKGLEWVSSISYEGDITYYGDSVKGRFTISRDNSKNTLYLQMNSLRAEDTAVYYCASQTLRESFDYWGQGTLVTVSS VL: DIQMTQSPSSVSASVGDRVTITCRASQDIANYLSWYQQKPGKSPKLLIYGTSNLEVGVPSRFSGSRSGTDFTLTISSLQPEDFATYYCLQDKEFPRTFGGGTKVEIKR , write its Kd.
Result: 0.0221

Ask: For h1779-014 (antibody, human IgG1, kappa, V domains shown, See recheck) VH: EVQLVQSGAEVKKPGASVKVSCKASGYTFTDYIIHWVKQAPGQGLEWIGYFNPNSGGSNYNENFKRKATMTADKSISTAYLEFSRLRSEDTAVYYCARRIAWDHWYFDFWGQGTMVTVSS VL: DIQMTQSPSSLSASVGDRVTITCLASEGISNDVAWYQQKPGKSPKLLVYAASRLQDGVPSRFSGSGSGTDYTFTISSLQPEDIATYYCQQGYKTPLTFGQGTKLEIKR , write its Kd.
Result: 0.412

Next:
Ask: For h1705-009 (antibody, human IgG1, kappa, V domains shown) VH: EVQLVESGGGLVQPGGSLRLSCAASGFTFSHYYMAWVRQAPGKGLEWVSSISYEGDITYYGDSVKGRFTISRDNSKNTLYLQMNSLRAEDTAVYYCAKQTLRESFDYWGQGTLVTVSS VL: DIQMTQSPSSVSASVGDRVTITCRASQDIANYLSWYQQKPGKSPKLVIYGTSNLEVGVPSRFSGSRSGSDYTLTISSLQPEDFATYFCLQDKEFPRTFGGGTKVEIKR , write its Kd.
Result: 4.55

Ask: For h1780-017 (antibody, human IgG1, kappa, V domains shown) VH: EVQLVQSGAEVKKPGASVKVSCKASGYTFTEYLIHWVRQAPGQGLEWIGYINPYSGGTVYNEKFKSRATLTVDKSISTAYMEFSRLRSDDTAVYYCARDGGYSDPLDYWGQGTMVTVSS VL: DTVLTQSPATLSLSPGERATLSCRASEGLTSYMHWYQQKPGQAPRLLIYKASNLASGVPARFSGSGSGTDFTLTISSLEPEDFATYFCQQNWNDPWTFGGGTKVEIKR , write its Kd.
Result: 0.0778

Ask: For h1705-005 (antibody, human IgG1, kappa, V domains shown) VH: EVQLVESGGGLVQPGGSLRLSCAASGFTFSHYYMAWVRQAPGKGLEWVTSISYEGDITYYGDSVKGRFTISRDNSKNTLYLQMNSLRAEDTATYYCASQTLRESFDYWGQGTLVTVSS VL: DIQMTQSPSSVSASVGDRVTITCRASQDIANYLSWYQQKPGKAPKLLIYGTSNLEVGVPSRFSGSGSGTDFTLTISSLQPEDFATYYCLQDKEFPRTFGGGTKVEIKR , write its Kd.
Result: 0.0216

Ask: For h1705-008 (antibody, human IgG1, kappa, V domains shown, IgG1 with M252Y/S254T/T256E, kappa) VH: EVQLVESGGGLVQPGGSLRLSCAASGFTFSHYYMAWVRQAPGKGLEWVTSISYEGDITYYGDSVKGRFTISRDNSKNTLYLQMNSLRAEDTATYYCASQTLRESFDYWGQGTLVTVSS VL: DIQMTQSPSSVSASVGDRVTITCRASQDIANYLSWYQQKPGKSPKLLIYGTSNLEVGVPSRFSGSRSGTDFTLTISSLQPEDFATYYCLQDKEFPRTFGGGTKVEIKR , write its Kd.
Result: 0.0342
